Entry source: ChEMBL document CHEMBL4296182

Test system: Klebsiella pneumoniae
RUN_CONDITIONS: Concentration 20 uM; ASSAY_TEST Inhibition of Bacterial Growth; detection method Absorption (OD600); MEDIA CAMHB; plate type 384well; NBS; CORNING #3640; time 18 hr
Description: Antibacterial activity against Klebsiella pneumoniae MDR ATCC 70063 (CO-ADD:GN_003); MIC in CAMBH media using NBS plates, by OD(600)
Entries with a potency or affinity are not part of this list.
RECORDED_METRIC: Inhibition (%)

> print(dat)
                                    compound  number
 1         CC(C)=C(c1ccc(Cl)cc1)c1c(N)ncnc1N    14.5
 2               OCc1nc2nc(Cl)c(Cl)[nH]c-2n1    8.57
 3              O=C(O)CCN1c2ccccc2Sc2ccccc21   14.48
 4              CC(C)(C)CC(C)(C)N1CN=C(S)NC1    6.38
 5            Oc1cc(-n2cccn2)c(O)cc1-n1cccn1   16.86
 6  CCOC(=O)c1cc(-c2ccccc2)nc2ccc(C)cc12 [NEOCINCHOPHEN]    14.7
 7            Nc1ccc(/N=N/c2ccc(O)cc2)c(N)n1    0.93
 8      O=P(O)(O)c1cc(-c2ccccc2)oc1-c1ccccc1   15.02
 9       CC(C)c1nc2c(=O)n(C)c(=O)n(C)c2[nH]1   -1.01
10  CC(=O)[C@H]1CC[C@H]2[C@@H]3CCC4=CC(=O)CC[C@]4(C)[C@@]3(F)[C@@H](O)C[C@]12C    7.06
11  CCOC(=O)c1csc(-c2ccc(COC(=O)c3ccccc3)o2)n1   10.14
12  FC(F)(F)c1nc2nc(Cl)c(Cl)nc2n1CCCN1CCOCC1    4.93

----------
Test system: Escherichia coli
METHOD_NOTES: Antibacterial activity against Escherichia coli ATCC 25922 (CO-ADD:GN_001); MIC in CAMBH media using NBS plates, by Resazurin F(560/590)
Assay type: functional
RUN_CONDITIONS: Concentration 20 uM, ASSAY_TEST Inhibition of Bacterial Growth, detection method Resazurin, Fluorescence (ex560/em590), MEDIA CAMHB, plate type 384well, CORNING #3640, time 18 hr
RECORDED_METRIC: Inhibition (%)

> print(dat)
                                    molecule  recorded.metric  number
 1     O=C(NC(=S)Nc1cc(Cl)ccc1O)c1cccc(Br)c1       Inhibition   -0.44
 2  COC(=O)CC1(C(=O)OC)Nc2cc(Cl)c(Cl)cc2S(=O)(=O)N1O (stereo not drawn)       Inhibition    7.08
 3           CCOC(=O)c1c(N=C(S)NC)sc2c1CCCC2       Inhibition    7.45
 4             COc1ccc2[nH]c(-c3ccccc3)cc2c1       Inhibition    0.95
 5  C/C(=N\O)C1CC(CC(=O)O)C1(C)C (stereo not drawn)       Inhibition    4.91
 6                  Cc1ccccc1N=C(S)Nc1ccccn1       Inhibition   -8.87
 7               O=C(C(Cl)Cl)N1CC2CCC(CC2)C1       Inhibition   -13.8
 8        CN(/N=N/c1[nH]cnc1C(=O)NN)C1CCCCC1       Inhibition   -4.79
 9                      Sc1nc2ccccc2n2cccc12       Inhibition    2.01
10                   C(=C\c1ccccn1)/c1ccccn1       Inhibition  -19.26
11  O=C(CC1C=Cc2ccccc2N1C(=O)c1ccccc1)c1ccccc1 (stereo not drawn)       Inhibition    9.32
12                Nc1ccccc1-c1nc2cnccc2[nH]1       Inhibition    9.24
13               O=C1c2ccccc2C(=O)C1c1ccccn1       Inhibition    2.88
